Origin of values: patent US20230134571A1

biological target: HIV Env, isolate 1394C9G1(Rev-) (HIV); test: cell-based or functional assay
OBSERVED_PROPERTY: IC80 (µg/ml) with constrains (µg/mL)
State just the number; it will be interpreted in µg/mL.

Please list IC80 (µg/ml) with constrains recorded for the binder ePGDM5 (antibody, V domains shown) VH: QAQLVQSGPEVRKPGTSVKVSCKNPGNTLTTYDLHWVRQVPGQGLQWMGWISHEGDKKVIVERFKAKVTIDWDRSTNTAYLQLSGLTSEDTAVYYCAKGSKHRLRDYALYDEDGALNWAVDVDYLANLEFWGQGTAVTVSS VL: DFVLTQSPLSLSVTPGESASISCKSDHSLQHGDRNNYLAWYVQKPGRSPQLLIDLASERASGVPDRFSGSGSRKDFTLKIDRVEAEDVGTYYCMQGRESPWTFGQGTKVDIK
0.009
